Here the recorded Kd is given for each entry.
- system-tested: T1, IFN-αG (human, UniProt P01569 24-189)
- T1 construct: also called IFN-α5; alpha G
- procedure-summary: ProteOn, one antigen concentration
The reply should be a number in nM, with the unit left off.

Examples with their reported Kd follow.
{"binder": "IFWM3334 (antibody, V domains shown, VH IFWH591, VL IFWL1082; converted mAb; also called IFWB3069) VH: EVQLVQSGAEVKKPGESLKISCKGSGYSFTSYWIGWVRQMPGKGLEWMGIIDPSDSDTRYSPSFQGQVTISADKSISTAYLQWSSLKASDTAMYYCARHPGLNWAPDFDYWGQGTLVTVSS VL: DIQMTQSPSSLSASVGDRVTITCRASQSIRNNSLNWYQQKPGKAPKLLIYAASSLQSGVPSRFSGSGSGTDFTLTISSLQPEDFATYYCQQDYNWPLTFGQGTKVEIK", "units": "nM", "value-reported": 0.941}
{"binder": "IFWM3310 (antibody, V domains shown, VH IFWH591, VL IFWL1007; converted mAb; also called IFWB3045) VH: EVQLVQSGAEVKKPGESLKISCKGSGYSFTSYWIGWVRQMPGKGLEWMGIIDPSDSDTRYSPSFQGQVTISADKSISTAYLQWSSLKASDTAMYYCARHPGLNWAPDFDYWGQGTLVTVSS VL: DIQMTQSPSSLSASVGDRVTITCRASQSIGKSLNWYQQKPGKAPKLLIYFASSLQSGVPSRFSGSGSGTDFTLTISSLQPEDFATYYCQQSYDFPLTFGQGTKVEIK", "units": "nM", "value-reported": 0.054}
{"binder": "IFWM3344 (antibody, V domains shown, VH IFWH624, VL IFWL998; converted mAb; also called IFWB3079) VH: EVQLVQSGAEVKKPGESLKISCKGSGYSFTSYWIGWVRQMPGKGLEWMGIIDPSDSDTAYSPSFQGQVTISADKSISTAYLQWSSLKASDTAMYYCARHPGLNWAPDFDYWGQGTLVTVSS VL: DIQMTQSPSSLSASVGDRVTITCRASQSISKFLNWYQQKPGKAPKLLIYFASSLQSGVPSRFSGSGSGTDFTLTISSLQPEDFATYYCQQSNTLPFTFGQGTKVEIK", "units": "nM", "value-reported": 0.112}
{"binder": "IFWM3305 (antibody, V domains shown, VH IFWH591, VL IFWL998; converted mAb; also called IFWB3040) VH: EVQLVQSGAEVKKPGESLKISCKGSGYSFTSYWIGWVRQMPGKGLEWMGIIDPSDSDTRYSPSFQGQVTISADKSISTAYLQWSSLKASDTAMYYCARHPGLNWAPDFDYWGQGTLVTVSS VL: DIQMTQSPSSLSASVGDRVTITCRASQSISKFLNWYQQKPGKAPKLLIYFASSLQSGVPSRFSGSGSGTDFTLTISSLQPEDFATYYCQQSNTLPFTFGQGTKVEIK", "units": "nM", "value-reported": 0.127}

Kd in this record for IFWM3358 (antibody, V domains shown, VH IFWH624, VL IFWL1041; converted mAb; also called IFWB3093) VH: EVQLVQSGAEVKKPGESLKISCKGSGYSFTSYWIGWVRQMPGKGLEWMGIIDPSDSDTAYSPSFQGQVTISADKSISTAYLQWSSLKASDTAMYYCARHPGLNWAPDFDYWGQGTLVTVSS VL: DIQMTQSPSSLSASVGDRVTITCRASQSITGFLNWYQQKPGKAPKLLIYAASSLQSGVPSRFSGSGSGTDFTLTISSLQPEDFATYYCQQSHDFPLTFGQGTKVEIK : 0.048
